Consider the following compounds and their measured melting point readings.

Solved cases (2 shown):
> print(dat)
                          compound  property.measured  value.measured
1  O=S(=O)(Cl)c1ccc(Br)cc1C(F)(F)F      melting point     62 to 63 °C
2      Sc1nnc(-c2cc(Cl)nc(Cl)c2)o1      melting point   205 to 206 °C

-- ask What value of measured melting point is listed for `O=C(CCl)c1cc(Br)c(Cl)s1` ?
-- reply 77 to 78 °C

-- ask What value of measured melting point is listed for `CSc1cc(-c2ccc(F)cc2)n[nH]1` ?
-- reply 101 to 103 °C

-- ask What value of measured melting point is listed for NNC(=O)CSC1CS(=O)(=O)c2cc([N+](=O)[O-])ccc21 (stereo not given) ?
-- reply 181 to 182 °C

-- ask What value of measured melting point is listed for `Cc1cc(C)c(N=C=S)cc1C` ?
-- reply 22 to 24 °C

-- ask What value of measured melting point is listed for `Clc1nccc(-c2ccccc2)n1` ?
-- reply 86 to 87 °C

###

PROPERTY_MEASURED: melting point (°C)

> print(dat)
                                   compound  value.measured
1  O=C(Nc1ccccc1[N+](=O)[O-])C(C(F)(F)F)C(F)(F)F             156
2                        Clc1cc(Br)cc(Br)c1              93
3                            NN1C(=O)CSC1=S             102
4                 COc1ccc(C2(C#N)CCCCC2)cc1              43

P = NC(=S)c1ccccn1
Q = O=C(n1ccnc1)C(F)(F)C(F)(F)C(F)(F)F
R = C=C(C)CCCCCCCCCCC
-- ask Put the compounds in ascending order of melting point. // list labels; follow requested order
-- reply R, Q, P
(R: -22 °C, Q: 11 °C, P: 136 °C)

###

Consider the following molecules and their measured melting point readings.

> print(dat)
                                   molecule  property.measured  value.measured
1        CSC(=CC(=C(C#N)C#N)c1ccc(Cl)cc1)SC      melting point   106 to 110 °C
2                  O=C(Cl)c1csc2ccc(Br)cc12      melting point   125 to 126 °C
3  CCOC(=O)CCC(C)C1CCC2C3C(=O)C(Br)C4CC(OC(C)=O)CCC4(C)C3CC(OC(C)=O)C12C (stereo not drawn)      melting point   132 to 134 °C

-- ask What value of measured melting point is listed for `NC(=S)c1ccc2c(c1)OCCO2` ?
-- reply 140 to 144 °C

-- ask What value of measured melting point is listed for O=C(c1ccncc1)N1N=C(c2ccccc2)CC1c1cn(-c2ccccc2)nc1-c1ccccc1 (stereo not drawn) ?
-- reply 224 to 226 °C

-- ask What value of measured melting point is listed for OCC1OC(OC2C(CO)OC(O)C(O)C2O)C(O)C(O)C1O (stereo not drawn) ?
-- reply 256 to 258 °C

-- ask What value of measured melting point is listed for `O=Cc1[nH]ncc1Br` ?
-- reply 80 to 82 °C

-- ask What value of measured melting point is listed for `O=C(Cl)c1cccc2c1OCC2` ?
-- reply 55 to 61 °C

-- ask What value of measured melting point is listed for `Cc1cncc(N2CCC(CO)CC2)n1` ?
-- reply 103 to 107 °C

-- ask What value of measured melting point is listed for `Cc1onc(-c2c(F)cccc2Cl)c1C(=O)Cl` ?
-- reply 51 °C

###

Consider the following compounds and their measured melting point readings.

Solved cases (4 shown):
> print(dat)
                              smiles.repr  value.measured
1  COc1ccc(C=C2C3=C(CCCC3)OC3=C2CCCC3)cc1   123 to 124 °C
2        O=C(CC(=O)c1cc(Br)ccc1O)c1ccccc1   100 to 103 °C
3  O=C(O)c1c(F)c(F)c(F)c(F)c1[N+](=O)[O-]   134 to 139 °C
4                     O=c1c(Cl)c[nH]cc1Cl          322 °C

For the next question, use this compound.
-- ask What value of measured melting point is listed for `CC(=O)CSc1ccc(C)cc1` ?
-- reply 96 to 98 °C

###

Consider the following molecules and their measured melting point readings.

> print(dat)
                        molecule  value.measured
1              Sc1cc(Cl)cc(Cl)c1     59 to 61 °C
2     CC(=O)Nc1ccc(I)cc1C(F)(F)F   134 to 136 °C
3  O=C1OC(=O)c2ccc(Cl)c3cccc1c23   207 to 210 °C

-- ask What value of measured melting point is listed for `OCc1cc(F)cc2c1OCOC2` ?
-- reply 73.2 to 73.9 °C

-- ask What value of measured melting point is listed for `Sc1c(Cl)cccc1Cl` ?
-- reply 45 to 50 °C

-- ask What value of measured melting point is listed for `Nc1nc(-c2ccccc2)ns1` ?
-- reply 152 to 156 °C

-- ask What value of measured melting point is listed for `CSC(SC)=C(C#N)C(=O)c1cccc(Cl)c1` ?
-- reply 88 to 91 °C

-- ask What value of measured melting point is listed for `CN1CCNC(=O)CCSCCSCCC1=O` ?
-- reply 115 to 116 °C

-- ask What value of measured melting point is listed for `Nc1cccc(Cl)n1` ?
-- reply 71 °C

-- ask What value of measured melting point is listed for `FC(F)(F)c1ccc(-c2nc(CCl)no2)cc1` ?
-- reply 48 to 50 °C

-- ask What value of measured melting point is listed for `O=C(Cl)c1cc(-c2ccccc2)c(C(F)(F)F)s1` ?
-- reply 48 to 51 °C

-- ask What value of measured melting point is listed for CC12CCC3C(=CCc4cc(O)ccc43)C1CCC2O (configuration not stated) ?
-- reply 174 °C

###

PROPERTY_MEASURED: melting point (°C)

Solved cases (2 shown):
> print(dat)
                                   compound  value.measured
1  C=CCC1(O)CCC2C3CCC4=CC(=O)CCC4=C3C=CC21C (configuration not stated)             120
2                             C=CCc1ccccc1O              -6

1 = CSc1nc(NS(=O)(=O)c2ccc(C)cc2)c(C#N)c(-c2ccc(Cl)cc2)c1Br
2 = COC(=O)C(C#N)=C(SCc1ccccc1)SCc1ccccc1
-- ask Which value of melting point is greater, the one for 1 or the one for 2 ? Indicate which entry you chose by stating its label.
-- reply 1
(1: 218 °C, 2: 104 °C)

###

PROPERTY_MEASURED: melting point (°C)

> print(dat)
                                   molecule  property.measured  units.text  value.measured
1  CC(C)(C)N(NC(=O)c1ccccc1)C(=O)c1cc(F)c(F)c(F)c1F      melting point          °C             158
2                          O=C(CCl)N1CCOCC1      melting point          °C              37
3           O=C(O)c1ccc([N+](=O)[O-])c(F)c1      melting point          °C             175
4  CC12CCC3C(CCC4CC(=O)CCC43C)C1CCC2O (centres undefined)      melting point          °C             181
5  CC(=O)OCC(=O)C1CCC2C3CCC4CC(O)CCC4(C)C3C(=O)CC12C (centres undefined)      melting point          °C             176
6     COc1cc(C=C[N+](=O)[O-])ccc1OCc1ccccc1      melting point          °C             123
7            c1cncc(-c2ccnc(-c3cccnc3)c2)c1      melting point          °C             148

###

Consider the following compounds and their measured melting point readings.

Solved cases (2 shown):
> print(dat)
                     smiles.repr  value.measured
1          COC(=O)CC(=O)c1cccnc1     34 to 42 °C
2  CN(C)c1ccc(N=Nc2ccc(N)cc2)cc1          189 °C

-- ask What value of measured melting point is listed for `N#CC(C#N)=C1CC(c2ccc(Cl)cc2)=C(C#N)C(=N)N1c1ccccc1` ?
-- reply 290 to 295 °C

-- ask What value of measured melting point is listed for `CC(=O)c1cc(Cl)ccc1O` ?
-- reply 53 to 56 °C

-- ask What value of measured melting point is listed for `CCCNC(N)=O` ?
-- reply 107 to 109 °C
